IC50 at 5 days reference
- measurement-description: in vitro
- run-conditions: mouse

compound="O=c1cc(-c2ccc(OCCCc3cn(CCOCCOc4ccc(-c5cc(=O)c6ccccc6o5)cc4)nn3)cc2)oc2ccccc12 [Ac1Az1]" reported="60.2 µM"
compound="COC(=O)c1cccc(COc2c(-c3ccc(OCCOCCOCCn4cc(CN(Cc5ccccc5)Cc5cn(CCOCCOCCOc6ccc(-c7oc8ccccc8c(=O)c7OCc7cccc(C(=O)OC)c7)cc6)nn5)nn4)cc3)oc3ccccc3c2=O)c1 [Ac15Az9]" reported="> 100 µM"
compound="Cc1ccc2oc(-c3ccc(OCCOCCOCCn4cc(CN(CCOc5ccc6c(=O)cc(-c7ccccc7)oc6c5)Cc5ccccc5)nn4)cc3)cc(=O)c2c1 [Ac16Az3]" reported="> 100 µM"
compound="Cc1ccc2oc(-c3ccc(OCCCCc4cn(CCOCCOc5ccc(-c6oc7ccccc7c(=O)c6O)cc5)nn4)cc3)cc(=O)c2c1 [Ac5Az100H]" reported="< 12.1 µM"
compound="Cc1ccc2oc(-c3ccc(OCCCCc4cn(CCOCCOc5ccc6c(=O)cc(-c7ccccc7)oc6c5)nn4)cc3)cc(=O)c2c1 [Ac5Az11]" reported="> 100 µM"

Attention now turns to another entry.
QUERY: Report IC50 at 5 days, nothing else, for this compound: O=c1c(OCc2ccccc2)c(-c2ccc(OCCOCCOCCn3cc(CN(Cc4ccccc4)Cc4cn(CCOCCOCCOc5ccc(-c6oc7ccccc7c(=O)c6OCc6ccccc6)cc5)nn4)nn3)cc2)oc2ccccc12 [Ac15Az5]
RESULT: > 100 µM
